System: Staphylococcus aureus
method-summary: Antimicrobial activity against NorA overexpressing Staphylococcus aureus 1199B at 100 ug/ml after 18 hrs by twofold serial dilution method
Assay type: functional, organism-based
Activity calls are given as the source filed them. No cut-off for these calls is given here.
measured-property: Activity

Field: example entries. Status: answers known.
* CCCCCCCCNC(=O)/C=C/CC(C)CC/C=C(\C)C=O (stereo unspecified) | inactive
* COc1ccc(NC(=O)/C=C/C=C(\C)CCC=C(C)C)cc1 | inactive
* COc1ccccc1NC(=O)/C=C/C=C(\C)CCC=C(C)C | inactive
* CC(C)=CCC/C(C)=C/C=C/C(=O)Nc1ccccc1 | inactive
* COc1ccccc1NC(=O)CCCC(C)CCC=C(C)C (stereo unspecified) | inactive

Let's switch to this molecule now.
Data point: C/C(C=O)=C\CC/C(C)=C/C=C/C(=O)N(C(C)C)C(C)C ; Activity = inactive

Data credit: ChEMBL document CHEMBL1157454
